All values here come from patent US11986471B2.

Overview of reported IC50 across a group of molecules:
TESTED ON: PRMT5 (Homo sapiens, UniProt O14744)
Construct: purchased Viva (custom protein)
Sequence (O14744 whole entry): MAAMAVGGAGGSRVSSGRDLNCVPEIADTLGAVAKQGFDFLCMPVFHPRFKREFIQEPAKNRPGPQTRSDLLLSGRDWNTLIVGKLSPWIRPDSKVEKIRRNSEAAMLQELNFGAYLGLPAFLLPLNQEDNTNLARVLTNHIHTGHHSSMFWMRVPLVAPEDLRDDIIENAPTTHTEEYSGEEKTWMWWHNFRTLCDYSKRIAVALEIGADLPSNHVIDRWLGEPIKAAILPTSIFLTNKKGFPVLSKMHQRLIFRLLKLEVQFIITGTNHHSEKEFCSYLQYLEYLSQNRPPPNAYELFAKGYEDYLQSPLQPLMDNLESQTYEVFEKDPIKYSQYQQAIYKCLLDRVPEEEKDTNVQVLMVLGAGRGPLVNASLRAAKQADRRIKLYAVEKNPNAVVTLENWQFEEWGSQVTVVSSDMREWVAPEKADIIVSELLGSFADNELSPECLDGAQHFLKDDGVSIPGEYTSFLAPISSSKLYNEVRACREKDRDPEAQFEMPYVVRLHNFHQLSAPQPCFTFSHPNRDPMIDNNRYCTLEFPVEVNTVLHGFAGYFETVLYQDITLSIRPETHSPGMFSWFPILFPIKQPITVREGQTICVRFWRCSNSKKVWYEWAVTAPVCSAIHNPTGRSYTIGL
Sequence (Q9BQA1 whole entry partner): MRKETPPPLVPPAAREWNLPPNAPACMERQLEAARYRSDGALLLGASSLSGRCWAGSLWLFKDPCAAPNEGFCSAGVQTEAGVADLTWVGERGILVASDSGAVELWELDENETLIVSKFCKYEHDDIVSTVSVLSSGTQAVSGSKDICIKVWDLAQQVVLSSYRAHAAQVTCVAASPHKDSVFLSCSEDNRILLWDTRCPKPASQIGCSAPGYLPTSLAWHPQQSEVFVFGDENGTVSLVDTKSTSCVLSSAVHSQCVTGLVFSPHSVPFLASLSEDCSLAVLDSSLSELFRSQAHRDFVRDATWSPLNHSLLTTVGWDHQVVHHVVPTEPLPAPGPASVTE
MEASUREMENT DESCRIPTION: PRMT5 IC50 assay in the presence of MTA as cofactor
Assay type: biochemical
PROTOCOL CONDITIONS: PRMT5, MTA as cofactor

[
  {
    "MOLECULE": "O=C(NC[C@H](O)CN1CCc2c(ccc(OCc3cnco3)c2Cl)C1)c1ccc(OC2CCN(Cc3ccccc3)CC2)cc1",
    "IC50": "0.05 to 0.5 µM"
  },
  {
    "MOLECULE": "Cc1ncoc1COc1ccc2c(c1)CCN(C[C@@H](O)CNC(=O)c1cc(NC3CCC3)nc(N3CCN(C(C)C)CC3)c1)C2",
    "IC50": "< 0.05 µM"
  },
  {
    "MOLECULE": "O=C(NC[C@H](O)CN1CCc2cc(OCc3cnco3)ccc2C1)c1cc(NC2CCC2)ncn1",
    "IC50": "0.05 to 0.5 µM"
  },
  {
    "MOLECULE": "O=C(NC[C@H](O)CN1CCc2cc(OCc3cnco3)ccc2C1)c1cc(NC2COC2)nc(N2CCN(C(=O)C3CC3)CC2)n1",
    "IC50": "0.05 to 0.5 µM"
  },
  {
    "MOLECULE": "Cc1ncoc1COc1ccc2c(c1Cl)CCN(C[C@@H](O)CNC(=O)c1cc(NC3CCCCC3)ncn1)C2",
    "IC50": "0.05 to 0.5 µM"
  },
  {
    "MOLECULE": "CC(=O)N1[C@@H]2CC[C@H]1C[C@H](Nc1cc(C(=O)NC[C@H](O)CN3CCc4cc(OCc5ocnc5C)ccc4C3)ccn1)C2",
    "IC50": "0.05 to 0.5 µM"
  },
  {
    "MOLECULE": "Cc1ncoc1COc1ccc2c(c1)CCN(C[C@@H](O)CNC(=O)c1cc(NC3CCC3)ncc1F)C2",
    "IC50": "0.05 to 0.5 µM"
  },
  {
    "MOLECULE": "O=C(NC[C@H](O)CN1CCc2c(ccc(OCc3cnco3)c2Cl)C1)c1cc(NC2COC2)nc(N2CCN(C(=O)C3CC3)CC2)n1",
    "IC50": "0.05 to 0.5 µM"
  }
]

Give IC50 for Cc1c(OCc2cnco2)ccc2c1CCN(C[C@@H](O)CNC(=O)c1ccnc(NC3CCC3C3CCC3)c1)C2 (some centres unmarked)
0.05 to 0.5 µM

Look up and state reported IC50 for `CC(=O)N1CCC(Nc2cc(C(=O)NC[C@H](O)CN3CCc4cc(OCc5ocnc5C)ccc4C3)nc(N3CCCCC3)n2)CC1`
< 0.05 µM

----------
Tested on: HAP1 MTAP-intact
MEASUREMENT DESCRIPTION: SDMA in-cell western assay, HAP1 MTAP-intact cell line
Type: cell-based
PROTOCOL CONDITIONS: Homo sapiens
TEST READOUT: IC50

Here are 3 compounds together with their reported answers.
[
  {
    "COMPOUND": "CC(C)N1CCN(c2cc(C(=O)NC[C@H](O)CN3CCc4cc(OCc5cnco5)ccc4C3)cc(NC3CCC3)n2)CC1 [Compound 462]",
    "TESTED ON": "HAP1 MTAP-intact",
    "REPORTED MEASUREMENT": "≥ 10 µM"
  },
  {
    "COMPOUND": "O=C(NC[C@H](O)CN1CCc2c(ccc(OCc3cnco3)c2Cl)C1)c1ccnc(NC2CCC(F)(F)CC2)c1 [Compound 425]",
    "TESTED ON": "HAP1 MTAP-intact",
    "REPORTED MEASUREMENT": "≥ 10 µM"
  },
  {
    "COMPOUND": "CC(C)C(=O)N1CCN(c2cc(C(=O)NC[C@H](O)CN3CCc4c(ccc(OCc5cnco5)c4Cl)C3)cc(NC3CCC3)n2)CC1 [Compound 466]",
    "TESTED ON": "HAP1 MTAP-intact",
    "REPORTED MEASUREMENT": "< 1 µM"
  }
]

Give me measured IC50, please, for this compound: CC(=O)N1CC(Nc2cc(C(=O)NC[C@H](O)CN3CCc4cc(OCc5ocnc5C)ccc4C3)nc(N3CCCCC3)n2)C1 [Compound 534]
1 to 10 µM

For the compound O=C(NC[C@H](O)CN1CCc2cc(OCc3cnco3)ccc2C1)c1cc(NC2CCC2)nc(N2CCCCC2)c1 [Compound 320] , give its reported IC50.
1 to 10 µM

Identify measured IC50 corresponding to COCCN(C)c1cc(C(=O)NC[C@H](O)CN2CCc3cc(OCc4cnco4)ccc3C2)cc(NC2CCC2)n1 [Compound 369]
1 to 10 µM

----------
TESTED ON: PRMT5 (Homo sapiens, UniProt O14744)
Construct: purchased Viva (custom protein)
MEASUREMENT DESCRIPTION: PRMT5 IC50 assay with no cofactor
Type: biochemical
pIC50: −log10 of the molar value.
TEST READOUT: pIC50

Sample records with pIC50:
[
  {
    "MOLECULE": "COc1cc(C(=O)NC[C@H](O)CN2CCc3c(ccc(OCc4ocnc4C)c3C)C2)cc(NC2CCN(C(C)=O)CC2)n1 [Compound 604]",
    "pIC50": "5.30 to 6.30"
  },
  {
    "MOLECULE": "COc1ccc(C(=O)N2CCc3cc(C(=O)NC[C@H](O)CN4CCc5cc(OCc6ocnc6C)c(F)cc5C4)ccc3C2)cc1 [Compound 577]",
    "pIC50": "5.30 to 6.30"
  }
]

Return pIC50 for the following molecule: CC(=O)N1CCC(Nc2cc(C(=O)NC[C@H](O)CN3CCc4cc(OCc5ocnc5C)ccc4C3)cc(N3CCCCC3)n2)CC1 [Compound 587]
5.30 to 6.30

----------
Tested on: HAP1 MTAP-intact
MEASUREMENT DESCRIPTION: SDMA in-cell western assay, HAP1 MTAP-intact cell line
Format: cell-based
PROTOCOL CONDITIONS: Homo sapiens
pIC50: −log10 of the molar value.
TEST READOUT: pIC50

Solved entries:
[
  {
    "MOLECULE": "CC(=O)N1CC(Nc2cc(C(=O)NC[C@H](O)CN3CCc4cc(OCc5ocnc5C)c(F)cc4C3)cc(N3CCCCC3)n2)C1",
    "pIC50": "5.00 to 6.00"
  },
  {
    "MOLECULE": "Cc1ncoc1COc1ccc2c(c1Cl)CCN(C[C@@H](O)CNC(=O)c1cccc(NC3CCC3)c1)C2",
    "pIC50": "≤ 5.00"
  },
  {
    "MOLECULE": "CCCN(C)c1cc(C(=O)NC[C@H](O)CN2CCc3c(ccc(OCc4ocnc4C)c3C)C2)cc(NC2CCC2)n1",
    "pIC50": "≤ 5.00"
  },
  {
    "MOLECULE": "Cc1c(OCc2cnco2)ccc2c1CCN(C[C@@H](O)CNC(=O)c1cccc(NC3CCC3)c1)C2",
    "pIC50": "≤ 5.00"
  },
  {
    "MOLECULE": "CC(=O)N1CC(Nc2cc(C(=O)NC[C@H](O)CN3CCc4cc(OCc5ocnc5C)ccc4C3)cc(N3CCCCC3)n2)C1",
    "pIC50": "5.00 to 6.00"
  },
  {
    "MOLECULE": "CC(=O)N1CCC(Nc2cc(C(=O)NC[C@H](O)CN3CCc4c(ccc(OCc5cnco5)c4Cl)C3)ncn2)CC1",
    "pIC50": "≤ 5.00"
  },
  {
    "MOLECULE": "O=C(NC[C@H](O)CN1CCc2c(ccc(OCc3cnco3)c2Cl)C1)c1cc(NC2CCC2)nc(N2CCN(C(=O)C3CC3)CC2)c1",
    "pIC50": "≤ 5.00"
  },
  {
    "MOLECULE": "Cc1ncoc1COc1ccc2c(c1)CCN(C[C@@H](O)CNC(=O)c1cc(NC3CCC3)nc(N3C4CCC3COC4)c1)C2",
    "pIC50": "> 6.00"
  },
  {
    "MOLECULE": "O=C(NC[C@H](O)CN1CCc2cc(OCc3c[nH]nn3)ccc2C1)c1ccnc(NC2CCC2)c1",
    "pIC50": "> 6.00"
  },
  {
    "MOLECULE": "CC(=O)N1CCC(Nc2cc(C(=O)NC[C@H](O)CN3CCc4cc(OCc5ocnc5C)ccc4C3)nc(N3CCCCC3)n2)CC1",
    "pIC50": "> 6.00"
  }
]

Check the records and state pIC50 for `Cc1ncoc1COc1cc2c(cc1F)CN(C[C@@H](O)CNC(=O)c1ccnc(NC3CCC3)c1)CC2`
5.00 to 6.00

Identify measured pIC50 associated with `Cc1c(OCc2cnco2)ccc2c1CCN(C[C@@H](O)CNC(=O)c1cc(NC3CCN(C(=O)C(C)(C)C)CC3)ncn1)C2`
≤ 5.00

Give recorded pIC50. `CCCC(=O)N1CC(Nc2cc(C(=O)NC[C@H](O)CN3CCc4c(ccc(OCc5cnco5)c4C)C3)ccn2)C1`
≤ 5.00

Give recorded pIC50. `O=C(NC[C@H](O)CN1CCc2cc(OCc3cnco3)ccc2C1)c1cncc(NC2CCC2)c1`
> 6.00

Answer with reported pIC50 of `COc1ccc(C(=O)N2CCc3cc(C(=O)NC[C@H](O)CN4CCc5c(ccc(OCc6cnco6)c5C)C4)ccc3C2)cc1`
≤ 5.00
